# assay explanation: yeast display, Sf9 membrane polyspecificity reagent, FACS + sequencing; frameworks hold sequencing errors
assay endpoint: polyreactivity (PSR sort gate)

QVQLVESGRGLVQAGGSLRLSCAASGRTFYFYAMGWYRQAPGKEREFVAAITSSGVSTYYADSVKGRFTISRDNAKNTVYFQMISQKPEDSAVYYCAADDWDWENDYWGQGTQVTVSS ... low polyreactivity
QVQHVDSGGGLVQAGGSLSLSCAASGSIFWPNTMGWYRQARGKERELVATISSGADTSYADSVKGRFTISRDNAKNTVYLQMNSLKPADTAVYYCAIRITVDDDHPRAQTFNYCGQGTQVTVSS ... low polyreactivity
QVQLVESGGGLVQAGGSLRLSCAASGRIFPINAMGWYRQAPGKERELVAAISGDGGDTYYADSVKGRFTISRDNAKNTVYLQMNSLKPEDTAVYYCAADALGYDYYYWGQGTQVTVSS ... low polyreactivity
QVQLVESGGGLVQAGGSLRLSCAASGRIFKGYAMGWYRQAPGKERELVAAITWRGGTTYYADSVKGRFTISRDNAKNTVYLQMTSLKPEDTAVYYCARARPTGYNYWGQGTQVTVSS ... high polyreactivity

Look up polyreactivity (PSR sort gate): `QVQLVESGGGLVQAGGSLRLSCAASGTIFYGNAMGWYRQAPGKEREYVAAITYSGGSTYYADSVKGRFSISRDNAKNTVYLQMNSLKPEDTAVYYCAKAYYPKGRYGFDYWGQGTQVTVSS`
high polyreactivity
